- System: HBV
- experiment description: PHH screening protocol: HBsAg and HBeAg levels by MSD ELISA
- Assay type: cell-based, Hepatitis B Virus
- condition description: Hepatitis B virus, 336 h, read-out: HBsAg EC50, virus AD38; PHH donor 8130; d 31; compound removed after 14 days of treatment
recorded endpoint: EC50 (nM)
Field format: number, assumed nM, no unit text.

Look up EC50: `CCOC(=O)c1ccnc(CNCC(=O)N(CC)CCN(C)C)c1`
12

---

- System: HBV
- experiment description: PHH screening protocol: HBsAg and HBeAg levels by MSD ELISA
- Assay type: cell-based, Hepatitis B Virus
- condition description: Hepatitis B virus, 336 h, read-out: HBsAg EC50, virus AD38; PHH donor 4239; d 31; compound removed after 14 days of treatment
- Experimental: HBV antiviral activity was assessed in primary human hepatocytes (PHH) in a 96-well format. PHH were (Life Technologies, Chicago, 11) plated on collagen coated tissue culture plates using Plating Media containing William's Medium E supplemented with 1% Penicillin/Streptomycin, 4 μg/mL human recombinant insulin, 2 mM glutamax, 15 mM Hepes, 1 μM dexamethasone and 5% fetal bovine serum (Life Technologies, Cat#A12176-01 Life Technologies, Chicago, Ill.). […]
recorded endpoint: EC50 (µM)
Just the number in µM, nothing appended.

If you can, please state the reported EC50 value of `CCOC(=O)c1ccnc(CNCC(=O)N(CC)CCN(C)C)c1` .
0.152

---

The reader will find reported log10 of IC50 values listed item by item below.
- study system: KDM2B (Homo sapiens)
- Sequence (Q8NHM5 1-1336): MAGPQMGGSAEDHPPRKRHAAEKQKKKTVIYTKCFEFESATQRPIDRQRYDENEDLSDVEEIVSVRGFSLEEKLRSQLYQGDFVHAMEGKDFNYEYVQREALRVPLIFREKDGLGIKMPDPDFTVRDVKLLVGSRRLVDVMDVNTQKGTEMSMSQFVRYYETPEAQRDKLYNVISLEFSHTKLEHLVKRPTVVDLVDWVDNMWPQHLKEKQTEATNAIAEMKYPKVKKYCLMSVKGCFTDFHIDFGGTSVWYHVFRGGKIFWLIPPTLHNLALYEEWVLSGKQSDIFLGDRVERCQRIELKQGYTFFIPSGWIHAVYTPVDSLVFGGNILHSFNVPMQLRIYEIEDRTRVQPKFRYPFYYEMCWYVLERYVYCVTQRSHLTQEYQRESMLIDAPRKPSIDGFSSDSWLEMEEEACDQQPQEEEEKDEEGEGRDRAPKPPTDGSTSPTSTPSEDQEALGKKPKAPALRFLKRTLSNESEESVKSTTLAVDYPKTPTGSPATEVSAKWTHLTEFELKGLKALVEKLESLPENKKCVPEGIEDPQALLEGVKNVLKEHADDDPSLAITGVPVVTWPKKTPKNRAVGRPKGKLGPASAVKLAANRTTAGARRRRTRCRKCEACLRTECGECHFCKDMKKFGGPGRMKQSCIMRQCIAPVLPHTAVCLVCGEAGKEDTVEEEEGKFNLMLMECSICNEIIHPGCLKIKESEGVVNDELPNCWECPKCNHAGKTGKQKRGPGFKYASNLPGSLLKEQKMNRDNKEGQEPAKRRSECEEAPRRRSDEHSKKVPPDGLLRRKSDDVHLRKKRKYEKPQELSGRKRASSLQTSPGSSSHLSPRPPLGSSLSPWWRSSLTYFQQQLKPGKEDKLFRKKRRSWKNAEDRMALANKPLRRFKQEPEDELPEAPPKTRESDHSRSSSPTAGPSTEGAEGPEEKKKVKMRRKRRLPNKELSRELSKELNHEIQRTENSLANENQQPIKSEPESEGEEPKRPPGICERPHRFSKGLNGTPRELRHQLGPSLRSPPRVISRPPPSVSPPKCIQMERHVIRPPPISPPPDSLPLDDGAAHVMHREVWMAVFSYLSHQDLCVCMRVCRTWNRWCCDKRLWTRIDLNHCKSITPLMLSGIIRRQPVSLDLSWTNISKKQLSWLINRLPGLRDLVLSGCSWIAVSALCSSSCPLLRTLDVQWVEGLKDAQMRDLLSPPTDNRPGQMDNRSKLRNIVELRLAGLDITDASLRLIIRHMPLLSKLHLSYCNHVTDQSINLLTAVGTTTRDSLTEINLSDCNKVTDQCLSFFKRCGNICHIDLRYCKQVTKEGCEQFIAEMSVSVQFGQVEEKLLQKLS
Base-10 log of IC50, unit nM.

Which log10 of IC50 value belongs to `Cc1cc(Cl)ccc1COc1ccnn1-c1cc(C(=O)O)ccn1` ?
2.82

Which log10 of IC50 is reported for this molecule? Nc1c(C(=O)O)ccnc1C(=O)O [Example 7, reference compound]
2.20

I have this molecule here, `CCN(CCN(C)C)C(=O)CNCc1cc(C(=O)O)ccn1` , and I need its recorded log10 of IC50.
3.20

If you can, please state the reported log10 of IC50 value of `O=C(O)c1ccncc1Nc1nn(CCN2CCC(F)(F)CC2)c2ccc(F)cc12` .
3.38

// lookup log10 of IC50 for `CCN(CC)CCCCNCc1cc(C(=O)O)ccn1`
4.08
